System: human neutrophils
test_name: IL-8 chemotaxis assay
Format: cell-based
assay_conditions: Neutrophil, 0.5 h; freshly isolated human neutrophils, rhIL-8 as chemoattractant, 30 minutes at 37° C.
IC50 strictly less than 0.3 µM = YES. Otherwise NO.

- CCN(CC)CCCCNc1nc2cc(Cl)c(Cl)cc2nc1-c1ccc(-c2cccs2)s1: YES
- CCN(CC)CCCCNc1nc2cc(Cl)c(Cl)cc2nc1-c1cc2ccccc2s1: NO
- CCN(CC)CCCCNc1nc2cc(Cl)c(Cl)cc2nc1-c1ccc(C)s1: NO
- CN(C)CCCNc1nc2cc(Cl)c(Cl)cc2nc1-c1cccs1: NO
- CN(C)CCCNc1nc2cc(Cl)c(Cl)cc2nc1-c1ccco1: NO

----------
metric: melting point

• CC(=O)N(C)c1ccc(Nc2nc3ccccc3nc2-c2ccccn2)cc1 = 165 to 166 °C
• CN(C)CCCCNc1nc2cc(F)c(F)cc2nc1-c1cccs1 = 175 to 177 °C
• c1ccc(-c2nc3ccccc3nc2NC2CN3CCC2CC3)nc1 (centres unmarked) = 63 to 65 °C
• CN1CCCC1CCNc1nc2ccccc2nc1-c1ccccn1 (centres unmarked) = 186 to 188 °C
• CCN(CC)CCCCNc1nc2cc(Cl)c(Cl)cc2nc1-c1cc2ccccc2[nH]1.Cl = 145 to 147 °C
• CCN(CC)CCCCNc1nc2cc(Cl)c(Cl)cc2nc1-c1cc2ccccc2o1.Cl = 220 °C
• Cl.N[C@H]1CC[C@H](Nc2nc3cc(Cl)c(Cl)cc3nc2-c2ccccn2)CC1 = 280 to 282 °C (dec.)
• CCCc1ccc(-c2nc3cc(Cl)c(Cl)cc3nc2NCCCCN(CC)CC)s1.Cl = 165 to 167 °C
• c1ccc(-c2nc3ccccc3nc2Nc2ccc(N3CCOCC3)cc2)nc1 = 205 to 206 °C
• CCN(CC)CCCCNc1nc2cc(Cl)c(Cl)cc2nc1-c1cccc2c1sc1ccccc12.Cl = 134 to 136 °C
• CN(C)C1CCC(Nc2nc3cc(Cl)c(Cl)cc3nc2-c2ccccn2)CC1.Cl (centres unmarked) = 180 to 182 °C
• CCN(CC)Cc1ccc(Nc2nc3cc(Cl)c(Cl)cc3nc2-c2ccccn2)cc1 = 250 to 252 °C (dec.)
• c1ccc(-c2nc3ccccc3nc2NCc2ccncc2)nc1 = 142 to 144 °C
• Cl.Clc1cc2nc(-c3ccccn3)c(N3CCC(N4CCCCC4)CC3)nc2cc1Cl = 275 to 277 °C (dec.)
• c1ccc(-c2nc3ccccc3nc2NCCCn2ccnc2)nc1 = 85 to 86 °C
• CCN(CC)CCCCNc1nc2cc(Cl)c(Cl)cc2nc1-c1ccc(Cl)s1.Cl = 98 to 100 °C
• CN(C)c1ccc(Nc2nc3ccccc3nc2-c2ccccn2)cc1 = 169 to 170 °C

Values were extracted from patent US6548499B1.
